These entries and their values trace back to patent US9149465B2.

Ki tested on human FAAH (Homo sapiens, UniProt O00519): recorded values
Sequence (O00519 whole entry): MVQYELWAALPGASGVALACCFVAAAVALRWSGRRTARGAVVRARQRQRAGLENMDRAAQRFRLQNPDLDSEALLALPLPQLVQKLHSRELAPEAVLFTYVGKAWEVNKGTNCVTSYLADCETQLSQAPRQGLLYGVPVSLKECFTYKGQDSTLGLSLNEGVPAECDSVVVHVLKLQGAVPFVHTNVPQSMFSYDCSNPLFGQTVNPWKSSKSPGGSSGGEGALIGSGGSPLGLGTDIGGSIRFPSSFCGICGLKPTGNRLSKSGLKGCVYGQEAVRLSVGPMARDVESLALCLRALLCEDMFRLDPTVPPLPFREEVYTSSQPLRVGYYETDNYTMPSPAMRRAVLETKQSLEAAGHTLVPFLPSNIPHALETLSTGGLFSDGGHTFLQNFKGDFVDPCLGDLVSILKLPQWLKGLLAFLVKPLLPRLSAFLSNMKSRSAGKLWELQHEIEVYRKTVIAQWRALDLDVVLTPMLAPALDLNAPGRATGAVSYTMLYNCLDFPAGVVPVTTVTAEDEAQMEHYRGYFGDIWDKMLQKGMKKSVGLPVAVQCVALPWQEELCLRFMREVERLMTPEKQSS

Problem: State the recorded Ki for this entry: BrC1=NOC(COCCc2ccccc2)C1 (single isomer, unassigned)
Result: 100 to 1000 nM

Problem: Try this compound too: Clc1ccc([C@H]2CC(Br)=NO2)cc1 (racemic)
Result: ≤ 100 nM

Problem: Try this compound too: Cc1nnc(-c2cccc(OC3=NOC(C)(c4ccc(OC(F)(F)F)cc4)C3)c2)o1 (racemic)
Result: ≤ 100 nM

Problem: Try this compound too: CSc1ccc(OC2=NOC(c3ccc(C(F)(F)F)cc3)C2)cn1 (racemic)
Result: ≤ 100 nM

Problem: Try this compound too: CCCCc1ccc([C@H]2CC(Oc3cncnc3)=NO2)cc1 (racemic)
Result: ≤ 100 nM

Problem: Try this compound too: COC(=O)c1cccc(-c2ccc(OC3=NOC(c4ccc(OC(F)(F)F)cc4)C3)cn2)c1 (racemic)
Result: 100 to 1000 nM

Problem: Try this compound too: CC1(c2ccc(OC(F)(F)F)cc2)CC(Oc2ccc(F)c(-c3nnco3)c2)=NO1 (racemic)
Result: ≤ 100 nM

Problem: Try this compound too: CNC(=O)c1ccc(OC2=NOC(c3ccc(OC(F)(F)F)cc3)C2)cn1 (racemic)
Result: ≤ 100 nM

Problem: Try this compound too: CC1(c2ccc(OC(F)(F)F)cc2)CC(Br)=NO1 (racemic)
Result: ≤ 100 nM

Problem: Try this compound too: CS(=O)(=O)c1ccc(OC2=NOC(c3ccc(OC(F)(F)F)cc3)C2)cn1 (racemic)
Result: ≤ 100 nM

Problem: Try this compound too: O=S(=O)(c1ccc([C@H]2CC(Br)=NO2)cc1)N1CCOCC1 (racemic)
Result: ≤ 100 nM

Problem: Try this compound too: FC(F)(F)Oc1ccc(C2CC(Oc3ccc(-c4cnoc4)nc3)=NO2)cc1 (racemic)
Result: ≤ 100 nM
